# test target: recombinant human deoxyuridine nucleotidohydrolase (dUTPase) (Homo sapiens (Human))
# Sequence (P33316 other isoform, or with tags, fused parts or gaps): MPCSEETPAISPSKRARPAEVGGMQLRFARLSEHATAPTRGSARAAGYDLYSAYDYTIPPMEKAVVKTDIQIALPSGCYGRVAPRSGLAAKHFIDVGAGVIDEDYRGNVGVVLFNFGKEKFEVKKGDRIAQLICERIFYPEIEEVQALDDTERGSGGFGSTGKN
# experiment summary: fluorescence-based dUTPase inhibition assay
# Format: biochemical
# condition context: mean over three concentrations, typically 100, 50 and 25 μmol/L, compared to in-run positive control
assay metric: % relative inhibition vs. positive control (%)

# compound, reported result
rows = [
    ("C[C@@H](NS(=O)(=O)CCCCCN1CC(=O)NC1=O)c1ccc(F)c(OC2CCC2)c1", 37),
    ("C[C@@H](NS(=O)(=O)CCOCCN1CC(=O)NC1=O)c1cccc(OCC2CC2)c1", 124),
    ("C[C@@H](NS(=O)(=O)CCCOCN1CC(=O)NC1=O)c1ccc(F)c(OC2CCCC2)c1", 187),
    ("C[C@H]1C(=O)NC(=O)N1COCCCS(=O)(=O)NC1(c2ccc(F)c(OCC3CC3)c2)CC1", 153),
]

[P] C[C@@H](NS(=O)(=O)CCCCCC1CC(=O)NC1=O)c1ccc(F)c(OCC2CC2)c1 (some centres unmarked)
[Q] CC(C)COc1cc([C@@H](C)NS(=O)(=O)CCC=CCN2C(=O)NC(=O)C2(C)C)ccc1F
[R] C[C@@H](NS(=O)(=O)CCCCCN1CC(=O)N(COCC[Si](C)(C)C)C1=O)c1ccc(F)c(OCC2CC2)c1
[S] C[C@@H](NS(=O)(=O)CCCCCN1CC(=O)NC1=O)c1ccc(F)c(OC2CCOCC2)c1
Incoming: Descending sort on % relative inhibition vs. positive control required. List the labels in the requested order.
Outgoing: P, S, Q, R

###

# test target: recombinant human deoxyuridine nucleotidohydrolase (dUTPase) (Homo sapiens (Human))
# experiment summary: fluorescence-based dUTPase inhibition assay
# Type: biochemical
# condition context: mean over three concentrations, typically 100, 50 and 25 μmol/L, compared to in-run positive control
assay metric: % relative inhibition vs. positive control (%)

Known % relative inhibition vs. positive control results, listed for orientation:
# compound, reported result
records = [
    ("C[C@@H](NS(=O)(=O)CCCCCC1(C)NC(=O)NC1=O)c1ccc(F)c(OCC2CC2)c1 (stereo partly shown) [127b]", 71),
    ("CC(C)COc1cc(C2(NS(=O)(=O)CCCCCN3C(=O)NC(=O)C3(C)C)CC2)ccc1F [118b]", 19),
]

[P] CC(C)COc1cc(C2(NS(=O)(=O)CC/C=C/CN3C(=O)NC(=O)C3(C)C)CC2)ccc1F [118a]
[Q] C[C@@H](NS(=O)(=O)CCCCCN1C(=O)NC(=O)[C@@H]1C)c1ccc(F)c(OCC2CC2)c1 [Compound 107b]
Incoming: Among P and Q , whose measured % relative inhibition vs. positive control is the smaller figure? Label of pick, please.
Outgoing: P

###

# test target: recombinant human deoxyuridine nucleotidohydrolase (dUTPase) (Homo sapiens (Human))
# experiment summary: fluorescence-based dUTPase inhibition assay
assay metric: IC50 (nM)

Known IC50 results, listed for orientation:
# entry smiles, unit descriptor, IC50
data = [
    ("C[C@@H](NS(=O)(=O)CCCCCN1CC(=O)NC1=O)c1ccc(F)c(Oc2ccccc2)c1", "nM", 1250),
    ("C[C@@H](NS(=O)(=O)CCCCCN1CC(=O)NC1=O)c1ccc(F)c(OCC2COC2)c1", "nM", 2000),
]

[1] C[C@@H](NS(=O)(=O)CCCCCN1CC(=O)NC1=O)c1ccc(F)c(OCC2CCOCC2)c1
[2] CCOc1cc([C@@H](C)NS(=O)(=O)CCCCCN2CC(=O)NC2=O)ccc1F
Incoming: Among 1 and 2 , whose measured IC50 is the smaller figure? Label of pick, please.
Outgoing: 2
(2: 3000 nM, 1: 14000 nM)

meta.source: patent US10858344B2
